Source listed as patent US20030045679A1.

assay: Cytotoxicity of A23187 and hydrogen peroxide on stable transfectants, propidium iodide uptake by flow cytometry; details: Chinese hamster, Percent cytotoxicity, 4 μg/ml A23187; adapt78 overexpressing Clone 15
recorded_metric: cytotoxicity at 60 min, 4 μg/ml (%)

CNc1ccc2oc(C[C@H]3O[C@@]4(CC[C@H]3C)O[C@H]([C@H](C)C(=O)c3ccc[nH]3)[C@H](C)C[C@H]4C)nc2c1C(=O)O; 11.8
